TGT: c-Src kinase (human) (Homo sapiens)
Construct: purchased Upstate Biotechnology, Lake Placid, N.Y
PROTOCOL_DETAILS: c-Src Kinase Assay
Format: biochemical
EXPERIMENTAL_PARAMETERS: test concentration of 2 μM; multiple values are separate assay results
# inhibition at 2 µM values compiled below
Quick reminder: number only, in %, skip the unit.

Example cases with answers are listed next.
INSERT INTO results (compound, value_measured) VALUES
  ('Cc1ccc(Br)cc1N1C(=O)Nc2c(C(=O)NC3CCN(C)CC3)sc3ncnc1c23 [Cpd 117]', 25),
  ('O=C(NCc1ccco1)c1sc2ncnc3c2c1NC(=O)N3c1ccc(N2CCOCC2)cc1 [Cpd 127]', -2),
  ('O=C(Nc1ccc(N2CCOCC2)cc1)c1sc2ncnc3c2c1NC(=O)N3c1ccc(N2CCOCC2)cc1 [Cpd 125]', 5);

Proceed to the following item.
input: Fill in the recorded inhibition at 2 µM for this compound, with c-Src kinase (human) (Homo sapiens) as test system: COc1ccc(NC(=O)c2sc3ncnc4c3c2NC(=O)N4c2ccc(OCc3ccccn3)c(Cl)c2)cc1OC [Cpd 48]
output: 7

----------
TGT: EGFR (Homo sapiens)
Construct: The intracellular portion of EGFR started at nucleotide 2189 (corresponding to amino acid 667) and ended at the termination codon
Sequence (P00533 669-1210 limits assumed): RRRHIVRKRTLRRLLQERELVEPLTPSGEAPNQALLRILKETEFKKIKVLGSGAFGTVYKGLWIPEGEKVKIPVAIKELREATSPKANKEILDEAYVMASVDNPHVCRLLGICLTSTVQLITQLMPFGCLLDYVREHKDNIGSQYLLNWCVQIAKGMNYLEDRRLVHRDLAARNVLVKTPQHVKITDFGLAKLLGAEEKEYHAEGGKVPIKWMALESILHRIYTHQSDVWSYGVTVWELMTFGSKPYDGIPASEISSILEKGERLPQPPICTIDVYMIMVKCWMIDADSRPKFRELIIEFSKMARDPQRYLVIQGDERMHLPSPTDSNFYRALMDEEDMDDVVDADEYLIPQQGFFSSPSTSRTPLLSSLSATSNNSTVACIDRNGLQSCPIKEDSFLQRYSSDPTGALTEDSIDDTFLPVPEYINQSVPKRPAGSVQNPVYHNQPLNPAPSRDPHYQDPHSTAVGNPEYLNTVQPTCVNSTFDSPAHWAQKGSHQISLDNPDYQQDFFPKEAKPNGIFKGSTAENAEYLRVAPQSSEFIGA
PROTOCOL_DETAILS: EGFR Kinase Assay
EXPERIMENTAL_PARAMETERS: GST-EGFR, ATP 5 μM
MEASUREMENT_KIND: pIC50
# reply with the number alone; pIC50 is -log10 of concentration in mol/L

Please review the entries below; each comes with its answer.
INSERT INTO assay_data (compound, measurement_kind, value_measured) VALUES
  ('Cc1ccc(Br)cc1N1C(=O)Nc2c(C(=O)Nc3ccc(CN4CCOCC4)cc3)sc3ncnc1c23 [Cpd 109]', 'pIC50', 6.46),
  ('COc1cc(NC(=O)c2sc3ncnc4c3c2NC(=O)N4c2cccc(Oc3ccccc3)c2)ccc1CN1CCOCC1 [Cpd 200]', 'pIC50', 7.05),
  ('COc1ccc(NC(=O)c2sc3ncnc4c3c2NC(=O)N4c2ccc(Oc3ccccc3)cc2)cc1OC [Cpd 99]', 'pIC50', 7.57);

Now look at this one.
input: Name the recorded pIC50 for O=C(NCCCO)c1sc2ncnc3c2c1NC(=O)N3c1ccc(F)c(Br)c1 [Cpd 154] .
output: 6.23

----------
inhibition at 2 µM listing for selected molecules.
TGT: c-Src kinase (human) (Homo sapiens, UniProt P12931)
Construct: purchased Upstate Biotechnology, Lake Placid, N.Y
Sequence (P12931 whole entry): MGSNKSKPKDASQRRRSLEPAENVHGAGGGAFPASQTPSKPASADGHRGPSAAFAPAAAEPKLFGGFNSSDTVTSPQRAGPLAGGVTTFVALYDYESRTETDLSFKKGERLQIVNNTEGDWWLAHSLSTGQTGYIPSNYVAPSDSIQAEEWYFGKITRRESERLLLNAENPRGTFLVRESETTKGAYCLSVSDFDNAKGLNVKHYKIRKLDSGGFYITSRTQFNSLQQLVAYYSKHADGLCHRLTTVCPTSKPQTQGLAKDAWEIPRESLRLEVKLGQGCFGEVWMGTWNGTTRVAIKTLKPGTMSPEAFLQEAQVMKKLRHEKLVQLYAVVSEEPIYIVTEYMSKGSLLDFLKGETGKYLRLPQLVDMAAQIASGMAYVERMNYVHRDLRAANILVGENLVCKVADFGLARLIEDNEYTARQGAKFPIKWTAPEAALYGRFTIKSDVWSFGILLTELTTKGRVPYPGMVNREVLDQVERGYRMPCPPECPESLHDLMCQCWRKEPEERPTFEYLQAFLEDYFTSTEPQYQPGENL
PROTOCOL_DETAILS: c-Src Kinase Assay
Type: biochemical
EXPERIMENTAL_PARAMETERS: test concentration of 2 μM; multiple values are separate assay results
Give just the numeric value; % need not be written.

INSERT INTO assay_data (molecule, endpoint_unit, value_measured) VALUES
  ('COc1ccc(Cl)c(N2C(=O)Nc3c(C(=O)Nc4ccc(CN5CCOCC5)cc4)sc4ncnc2c34)c1 [Cpd 51]', '%', 33),
  ('O=C(NCCCO)c1sc2ncnc3c2c1NC(=O)N3c1ccc(Oc2ccccc2)cc1 [Cpd 106]', '%', 30),
  ('CC(C)(C)OC(=O)NCCCNC(=O)c1sc2ncnc3c2c1NC(=O)N3c1ccc2c(ccn2Cc2cccc(F)c2)c1 [Cpd 141]', '%', 26),
  ('CN1CCN(Cc2ccc(NC(=O)c3sc4ncnc5c4c3NC(=O)N5c3ccc(OCc4ccccn4)c(Cl)c3)cc2)CC1 [Cpd 90]', '%', 8),
  ('COc1cc(N2C(=O)Nc3c(C(=O)Nc4ccc(OCC5CCCCO5)c(OC)c4)sc4ncnc2c34)c(Cl)cc1Cl (stereo not drawn) [Cpd 45]', '%', 17),
  ('COc1cc(N2C(=O)Nc3c(C(=O)Nc4ccc(CN5CCN(C)CC5)cc4)sc4ncnc2c34)c(Cl)cc1Cl [Cpd 60]', '%', 38),
  ('O=C(Nc1ccc(CN2CCOCC2)cc1)c1sc2ncnc3c2c1NC(=O)N3c1ccc(Oc2ccccc2)c(F)c1 [Cpd 113]', '%', 68),
  ('O=C(NCCCO)c1sc2ncnc3c2c1NC(=O)N3c1ccc(Oc2ccccc2)c(Cl)c1 [Cpd 137]', '%', 26);

input: Tell me the measured inhibition at 2 µM of O=C(O)c1sc2ncnc3c2c1NC(=O)N3c1ccc2c(ccn2Cc2cccc(F)c2)c1 [Cpd 77] , please.
output: 44

input: Same for O=C(O)c1sc2ncnc3c2c1NC(=O)N3c1ccc(Br)cc1F [Cpd 40]
output: 3

input: Field entry: CN1CCC(NC(=O)c2sc3ncnc4c3c2NC(=O)N4c2ccc(Oc3ccc(F)cc3)cc2)CC1 [Cpd 118]
output: 15

input: Next up: COc1ccc(N2C(=O)Nc3c(C(=O)Nc4ccc(CN5CCOCC5)cc4)sc4ncnc2c34)c(F)c1 [Cpd 65]
output: -9

----------
// reported IC50 per item
TGT: HER-2 (Homo sapiens)
Construct: His6 with thrombin site (N)
Sequence (P04626 679-1255): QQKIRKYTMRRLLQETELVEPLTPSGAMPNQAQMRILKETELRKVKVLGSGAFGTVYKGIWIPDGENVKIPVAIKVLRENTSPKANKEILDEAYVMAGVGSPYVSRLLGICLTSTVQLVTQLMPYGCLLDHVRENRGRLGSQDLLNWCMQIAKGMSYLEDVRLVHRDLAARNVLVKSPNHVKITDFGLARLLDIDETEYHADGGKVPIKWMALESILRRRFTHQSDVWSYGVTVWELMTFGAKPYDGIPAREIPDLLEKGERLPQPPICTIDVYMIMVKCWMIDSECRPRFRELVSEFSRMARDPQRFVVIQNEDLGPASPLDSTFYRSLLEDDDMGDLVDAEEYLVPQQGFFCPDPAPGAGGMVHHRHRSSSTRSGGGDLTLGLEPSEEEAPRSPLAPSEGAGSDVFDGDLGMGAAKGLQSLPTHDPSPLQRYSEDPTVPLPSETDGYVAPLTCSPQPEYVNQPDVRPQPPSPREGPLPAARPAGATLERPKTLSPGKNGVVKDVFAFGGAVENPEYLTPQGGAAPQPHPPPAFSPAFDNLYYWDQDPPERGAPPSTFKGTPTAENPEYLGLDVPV
PROTOCOL_DETAILS: HER-2 Kinase Assay
EXPERIMENTAL_PARAMETERS: value in parentheses

Examples with answers:
INSERT INTO results (compound, tgt, value_measured) VALUES
  ('O=C(Nc1ccc(CN2CCOCC2)cc1)c1sc2ncnc3c2c1NC(=O)N3c1ccc2nc(Cc3cccc(F)c3)[nH]c2c1', 'HER-2 (Homo sapiens)', '> 1 µM'),
  ('CN1CCC(NC(=O)c2sc3ncnc4c3c2NC(=O)N4c2ccc(Oc3ccc(F)cc3)cc2)CC1', 'HER-2 (Homo sapiens)', '~100 µM'),
  ('CC(C)(C)OC(=O)NCCCNC(=O)c1sc2ncnc3c2c1NC(=O)N3c1ccc2c(ccn2Cc2cccc(F)c2)c1', 'HER-2 (Homo sapiens)', '~100 µM');

Let us move to another entry and its IC50.
input: Can you look up IC50 on HER-2 (Homo sapiens) for "CCOC(=O)c1sc2ncnc3c2c1NC(=O)N3c1ccc(C)c(Br)c1" ?
output: > 100 µM

----------
TGT: Lyn kinase (human) (Homo sapiens)
Construct: purchased Upstate Biotechnology, Lake Placid, N.Y
Sequence (P07948 whole entry): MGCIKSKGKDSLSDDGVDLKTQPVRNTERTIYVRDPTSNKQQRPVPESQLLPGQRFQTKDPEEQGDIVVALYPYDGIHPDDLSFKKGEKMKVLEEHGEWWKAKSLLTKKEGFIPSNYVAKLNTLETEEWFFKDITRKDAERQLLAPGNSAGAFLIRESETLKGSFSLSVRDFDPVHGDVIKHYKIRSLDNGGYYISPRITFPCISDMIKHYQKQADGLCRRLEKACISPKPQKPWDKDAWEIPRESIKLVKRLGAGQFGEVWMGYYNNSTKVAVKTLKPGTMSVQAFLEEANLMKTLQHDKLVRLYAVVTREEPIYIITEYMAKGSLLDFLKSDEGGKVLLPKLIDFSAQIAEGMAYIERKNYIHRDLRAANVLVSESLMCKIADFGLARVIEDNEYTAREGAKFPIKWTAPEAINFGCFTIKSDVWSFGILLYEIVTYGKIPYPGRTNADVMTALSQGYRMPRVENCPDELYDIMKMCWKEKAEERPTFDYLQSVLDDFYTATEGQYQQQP
PROTOCOL_DETAILS: Lyn Kinase Assay
Format: biochemical
EXPERIMENTAL_PARAMETERS: test concentration of 2 μM
MEASUREMENT_KIND: inhibition at 2 µM
// unit must come after the numeric part

Example compounds with recorded inhibition at 2 µM:
INSERT INTO assay_data (compound, measurement_kind, value_measured) VALUES
  ('Cc1ccc(N2C(=O)Nc3c(C(=O)Nc4ccc(CN5CCOCC5)cc4)sc4ncnc2c34)cc1Br', 'inhibition at 2 µM', '69%'),
  ('COc1cc(N2C(=O)Nc3c(C(=O)O)sc4ncnc2c34)c(Cl)cc1Cl', 'inhibition at 2 µM', '29%'),
  ('CC(C)(C)OC(=O)NCCCNC(=O)c1sc2ncnc3c2c1NC(=O)N3c1ccc2c(ccn2Cc2cccc(F)c2)c1', 'inhibition at 2 µM', '37%'),
  ('COC(=O)c1sc2ncnc3c2c1NC(=O)N3c1c(Cl)ccc2c1OCO2', 'inhibition at 2 µM', '52%'),
  ('COc1ccc(Cl)c(N2C(=O)Nc3c(C(=O)Nc4ccc(OCCN5CCOCC5)c(OC)c4)sc4ncnc2c34)c1', 'inhibition at 2 µM', '60%'),
  ('Cc1cccc(Cl)c1N1C(=O)Nc2c(C(=O)Nc3ccc(C(O)CN4CCOCC4)cc3)sc3ncnc1c23 (centres unmarked)', 'inhibition at 2 µM', '59%'),
  ('O=C(Nc1ccc(CN2CCOCC2)cc1)c1sc2ncnc3c2c1NC(=O)N3c1c(Cl)cccc1Cl', 'inhibition at 2 µM', '70%'),
  ('COc1cc(N2C(=O)Nc3c(C(=O)Nc4ccc(OCC5CCCCO5)c(OC)c4)sc4ncnc2c34)c(Cl)cc1Cl (centres unmarked)', 'inhibition at 2 µM', '29%'),
  ('CC(C)(C)OC(=O)N1CCC(NC(=O)c2sc3ncnc4c3c2NC(=O)N4c2ccc3c(ccn3Cc3cccc(F)c3)c2)CC1', 'inhibition at 2 µM', '7%'),
  ('O=C(Nc1ccc(CCN2CCCCC2)cc1)c1sc2ncnc3c2c1NC(=O)N3c1ccc(Oc2ccccc2)c(Cl)c1', 'inhibition at 2 µM', '43%');

input: Given the entry "O=C(NCCN1CCOCC1)c1sc2ncnc3c2c1NC(=O)N3c1ccc2c(ccn2Cc2cccc(F)c2)c1" , report its measured inhibition at 2 µM.
output: 16%

input: Item: "COc1cc(NC(=O)c2sc3ncnc4c3c2NC(=O)N4c2ccc(Cc3ccccc3)cc2)ccc1OCCN1CCCCC1"
output: 55%

input: Please answer likewise for COc1cc(NC(=O)c2sc3ncnc4c3c2NC(=O)N4c2cc(OC)c(OC)c(OC)c2Cl)ccc1OCC1CCCCO1 (centres unmarked)
output: -6%

input: Same lookup for "C[C@H](c1ccccc1)N1C(=O)Nc2c(C(=O)O)sc3ncnc1c23" , please.
output: 12%

input: Same again, this time with "O=C(Nc1ccc(CN2CCOCC2)cc1)c1sc2ncnc3c2c1NC(=O)N3c1c(Cl)ccc2c1OCO2"
output: 92%

input: Also, "Cc1ccc(Oc2ccc(N3C(=O)Nc4c(C(=O)Nc5ccc(CN6CCOCC6)cc5)sc5ncnc3c45)cc2Cl)cn1" please.
output: 10%

input: Similarly, "CN1CCN(Cc2ccc(NC(=O)c3sc4ncnc5c4c3NC(=O)N5c3ccc(Oc4ccccc4)cc3)cc2)CC1" ?
output: 30.7%

input: Note, next up: "O=C(Nc1ccc(CN2CCCCC2)cc1)c1sc2ncnc3c2c1NC(=O)N3c1cc(OCc2cccc(F)c2)c(Cl)cc1Cl"
output: 1%

input: Next compound: "O=C(Nc1ccc(CN2CCOCC2)cc1)c1sc2ncnc3c2c1NC(=O)N3c1ccc(F)cc1Cl"
output: 68%
